The values you see were collected from the supplement of paper PMC12042874.

# Experimental protocol: amyloid nucleation score (Sup35N fusion, yeast selection) (log enrichment); library NNK3; higher = more nucleation; inactive = no reads after selection;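 further: zero at mode of non-aggregating sequences after 7 days selection at 30°C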
Quantity kind: amyloid nucleation score

> print(dat)
       polymer.sequence     value
1  CTGYDCVGMGADFCARMWHC  inactive
2  GELPLRVKVKSFHTDTSLRK     0.614
3         CVPGYGYRLNYSL  inactive
4  VYKWRAYIEHSNFWAIKPVC  inactive
5  CLSLDQWWLHRYDHLVLGET  inactive
6  IVTYLLFDYHNPTRVSYYEC  inactive
7    GHRHQFSHATVNDVKSRV  inactive
8  SKTHRSVFMMAVIELKPTNS  inactive

Dear reader, for each entry below, please note its amyloid nucleation score.
1. VCLHFMGLRVAFLAGMFIII
2. NDHSEGTCSIRERQTSRWML
3. HAEPIYFYIVRTLKDG

1. inactive
2. inactive
3. inactive
